biological target: interaction between GST-MAGEA11 MHD and FAM-PCF11_4 peptide (MAGE-A11:PCF11) (Homo sapiens (Human)); test: TR-FRET dose response competition assay for disruption of MAGE-A11:PCF11 binding; conditions: Dose response TR-FRET screening of nine scaffold groups against MAGE-A11:PCF11; read-out: consensus IC50
Sequence (P43364 218-429): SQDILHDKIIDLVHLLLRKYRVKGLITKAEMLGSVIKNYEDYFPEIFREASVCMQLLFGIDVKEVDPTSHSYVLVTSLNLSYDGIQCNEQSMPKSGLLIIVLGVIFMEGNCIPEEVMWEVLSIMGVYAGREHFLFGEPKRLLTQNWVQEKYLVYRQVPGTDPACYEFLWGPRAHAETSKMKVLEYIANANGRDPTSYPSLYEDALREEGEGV
Examples of compounds with documented IC50 follow.
Could you give me the number in µM? Just the number is fine.

As a guide, the following entries are already answered.
{"compound": "COc1cccc(F)c1CNCCCNc1ccnc2cc(C(F)(F)F)ccc12 [SJ000521051-1]", "IC50 (µM)": 69.9}
{"compound": "CCCn1c(-c2ccc(F)cc2)nc2c1c(=O)[nH]c(=O)n2Cc1ccccc1 [SJ000456724-1]", "IC50 (µM)": 69.9}
{"compound": "FC(F)(F)Oc1cccc(CNCCCNc2ccnc3cc(Cl)ccc23)c1 [SJ000521022-2]", "IC50 (µM)": 69.9}
{"compound": "CC(=O)NC1=C(N)C(=O)c2ccccc2C1=O [SJ000053101-1]", "IC50 (µM)": 69.9}
{"compound": "CCC(C)(C)NC(=O)Cn1cnc2cc(-c3ccccc3)sc2c1=O [SJ000425613-1]", "IC50 (µM)": 69.9}

So for COC(=O)c1cccc(NC2=C(Cl)C(=O)c3ccccc3C2=O)c1 [SJ000024926-1] , the logged IC50 turned out to be 69.9

So for COc1cccc(CNCCCNc2ccnc3cc(CC4CCCCC4)ccc23)c1O [SJ000311251-1] , the logged IC50 turned out to be 29.2

So for COc1ccc(F)cc1CNCCCNc1ccnc2cc(-c3ccc4c(c3)OCO4)ccc12 [SJ000311293-1] , the logged IC50 turned out to be 29.9

So for CCCN1C(=O)c2ccccc2NC1c1ccc(OC)cc1 (stereo not drawn) [SJ000026518-2] , the logged IC50 turned out to be 69.9

---

target: MAGE-A11:PCF11 (Homo sapiens (Human), UniProt P43364); assay: TR-FRET single point screening at 15 μM; format: binding; set-up: unit not given here; settings: single point TR-FRET screening at 15 μM against MAGE-A11:PCF11
Examples of compounds with documented TR-FRET signal follow.

As a guide, the following entries are already answered.
{"smiles-string": "Clc1ccc2c(NCCCCN(Cc3ccccc3)Cc3ccccn3)ccnc2c1", "measurement": 9.531}
{"smiles-string": "CN1CCN(c2c(C(=O)c3ccccc3)cnc3ccc(Cl)cc23)CC1", "measurement": "−5.573"}
{"smiles-string": "FC(F)(F)c1ccccc1CN(CCCCNc1ccnc2cc(Cl)ccc12)Cc1ccccc1", "measurement": 27.82}
{"smiles-string": "Clc1ccc2c(NCCCCN(Cc3ccccc3)CC3CCCCC3)ccnc2c1", "measurement": 41.93}
{"smiles-string": "Oc1c(F)cc(F)cc1CN(CCCCNc1ccnc2cc(Cl)ccc12)Cc1ccccc1", "measurement": 30.65}
{"smiles-string": "CCCN(CCCNc1c2ccc(Cl)cc2nc2ccc(OC)cc12)Cc1cn(C)c2ccccc12", "measurement": "−162.2"}
{"smiles-string": "COc1ccc(O)c(CN2CCC(Nc3ccnc4cc(Cl)ccc34)CC2)c1", "measurement": 7.779}
{"smiles-string": "COc1ccc2ncc(S(=O)(=O)c3ccccc3)c(N3CCN(c4cccc(C)c4C)CC3)c2c1", "measurement": "−241.8"}
{"smiles-string": "Clc1ccc2c(NCCCCN(CCc3ccccc3)Cc3ccccc3)ccnc2c1", "measurement": 23.38}
{"smiles-string": "COc1ccc2nc3cc(Cl)ccc3c(NCCCNCc3ccc(Cl)c([N+](=O)[O-])c3)c2c1", "measurement": "−95.38"}

Alright, here's another compound for you.
So for CCOC(=O)c1cnc2ccc(OCC)cc2c1NCCN1CCOCC1 , the logged TR-FRET signal turned out to be 5.291
